# Tested on: sDMA methylation in Maver-1 cells
# TEST: sDMA western blot, 10 kDa band to total SmD3
# Assay type: cell-based
# TEST CONDITIONS: Homo sapiens, Maver1, 96 h, day 4, N = 1, read-out: sDMA Western blot IC50 10 kDa Band
REPORTED ENDPOINT: IC50 (nM)
Only the number, expressed in nM, is required.

Query block: So what IC50 did CC(=O)N1CCC(Nc2cc(C(=O)NC[C@H](O)CN3CCc4ccccc4C3)ccn2)CC1 get with sDMA methylation in Maver-1 cells?
Result block: 0.1

----------
# Tested on: sDMA methylation in Mino cells
# TEST: sDMA western blot, 10 kDa band to total SmD3
# Type: cell-based
# TEST CONDITIONS: Homo sapiens, Table 3, read-out: sDMA Western IC50
Documented IC50 across a set of compounds
Only the number, expressed in nM, is required.

CC(=O)N1CCC(Nc2cc(C(=O)NC[C@H](O)CN3CCc4ccccc4C3)ncn2)CC1	7

--- query ---
Query block: Name the reported IC50 value associated with the compound CC(=O)N1CCC(Nc2cc(C(=O)NC[C@H](O)CN3CCc4ccccc4C3)ccn2)CC1
Result block: 2
